# Tested on: T1, human IL-33 (R&D Systems, #3625-IL-010/CF) (human) (UniProt O95760)
# T1 sequence (looked up): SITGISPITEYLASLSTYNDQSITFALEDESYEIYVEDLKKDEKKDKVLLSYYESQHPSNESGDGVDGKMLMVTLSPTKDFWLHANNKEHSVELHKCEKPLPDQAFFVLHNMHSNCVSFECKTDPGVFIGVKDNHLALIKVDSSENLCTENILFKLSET
# Protocol notes: SPR Biacore T200, 37 C
Property measured: pKd
Expect pKd as a plain number equal to -log10 of the molar concentration.

binder H4H9665P (antibody, from another filing, IgG4, V domains shown) VH: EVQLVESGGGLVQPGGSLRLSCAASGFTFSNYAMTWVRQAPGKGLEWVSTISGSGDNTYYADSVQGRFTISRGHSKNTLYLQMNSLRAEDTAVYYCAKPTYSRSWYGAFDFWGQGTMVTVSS VL: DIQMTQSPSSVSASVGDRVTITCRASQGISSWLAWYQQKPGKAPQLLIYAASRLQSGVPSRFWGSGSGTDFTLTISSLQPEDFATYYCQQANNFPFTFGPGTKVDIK , pKd observed: 9.00

Record summary for H4H9666P (antibody, from another filing, IgG4, V domains shown) VH: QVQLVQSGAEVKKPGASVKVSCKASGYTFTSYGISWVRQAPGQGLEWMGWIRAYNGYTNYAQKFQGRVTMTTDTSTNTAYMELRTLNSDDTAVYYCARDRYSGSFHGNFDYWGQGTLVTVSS VL: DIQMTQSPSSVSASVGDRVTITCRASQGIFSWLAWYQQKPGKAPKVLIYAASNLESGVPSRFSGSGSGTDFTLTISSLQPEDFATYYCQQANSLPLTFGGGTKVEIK : reported pKd = 9.03
